- Measurement Setup: in formamide, 308.14 K
Assay Metric: solubility (mole fraction)
Just the number.

Inquiry: Looking for the measured solubility (mole fraction) of O=S(=O)([O-])NC1CCCCC1.[Na+] , can you help?
Reply text: 0.0526

###

- Measurement Setup: in DMSO, 298.15 K
Assay Metric: solubility (mole fraction)
Respond with the number and no other words.

Inquiry: Which solubility (mole fraction) is listed for O=S(=O)([O-])NC1CCCCC1.[Na+] ?
Reply text: 0.00226

###

- Measurement Setup: in water, 308.13 K
Assay Metric: solubility (mole fraction)
Write no unit; give the number alone.

Inquiry: State the recorded solubility (mole fraction) for this entry: O=S(=O)([O-])NC1CCCCC1.[Na+]
Reply text: 0.0284

###

- Measurement Setup: in formic acid, 303.15 K
Assay Metric: solubility (mole fraction)

Inquiry: Looking for the measured solubility (mole fraction) of O=S(=O)([O-])NC1CCCCC1.[Na+] , can you help?
Reply text: 0.0275

###

- Measurement Setup: in acetic acid, 328.17 K
Assay Metric: solubility (mole fraction)
Provide a numeric answer; units are not to be included.

Inquiry: Could you share which solubility (mole fraction) value was measured for O=S(=O)([O-])NC1CCCCC1.[Na+] ?
Reply text: 0.0128

###

- Measurement Setup: in water, 303.17 K
Assay Metric: solubility (mole fraction)

Inquiry: Entry under review: O=S(=O)([O-])NC1CCCCC1.[Na+] . Reported solubility (mole fraction)?
Reply text: 0.0233

###

- Measurement Setup: in formamide, 293.16 K
Assay Metric: solubility (mole fraction)
# respond with the number and nothing more

Inquiry: Requested read-out: solubility (mole fraction). Entry: O=S(=O)([O-])NC1CCCCC1.[Na+]
Reply text: 0.0438

###

- Measurement Setup: in methanol, 283.1 K
Assay Metric: solubility (mole fraction)
Form: value (number only, do not type unit).

Inquiry: What solubility (mole fraction) value was documented for this compound, O=S(=O)([O-])NC1CCCCC1.[Na+] ?
Reply text: 0.00271

###

- Measurement Setup: in formamide, 323.15 K
Assay Metric: solubility (mole fraction)
Just the number, please.

Inquiry: Which solubility (mole fraction) is listed for O=S(=O)([O-])NC1CCCCC1.[Na+] ?
Reply text: 0.0567

###

- Measurement Setup: in acetic acid, 333.2 K
Assay Metric: solubility (mole fraction)

Inquiry: So what's the measured solubility (mole fraction) for this one? O=S(=O)([O-])NC1CCCCC1.[Na+]
Reply text: 0.0134

###

- Measurement Setup: in formamide, 303.15 K
Assay Metric: solubility (mole fraction)

Inquiry: Query (molecule): O=S(=O)([O-])NC1CCCCC1.[Na+] ; field requested: solubility (mole fraction)
Reply text: 0.0506

###

- Measurement Setup: in water, 293.15 K
Assay Metric: solubility (mole fraction)
Keep the answer to the number alone.

Inquiry: What does the data say about its solubility (mole fraction)? Entry: O=S(=O)([O-])NC1CCCCC1.[Na+]
Reply text: 0.018

###

- Measurement Setup: in formic acid, 288.13 K
Assay Metric: solubility (mole fraction)

Inquiry: Quick check: solubility (mole fraction) of O=S(=O)([O-])NC1CCCCC1.[Na+] ?
Reply text: 0.0179

###

- Measurement Setup: in acetic acid, 308.17 K
Assay Metric: solubility (mole fraction)

Inquiry: Please give the measured solubility (mole fraction) for this compound: O=S(=O)([O-])NC1CCCCC1.[Na+]
Reply text: 0.00753
